Below, each entry is listed with its recorded IC50.
# SYSTEM_UNDER_TEST: 2 DMB
# TEST_NAME: CELIA on monoclonal 2 DMB; coated antigen not given
Where no end group is shown, it is not given here.

BINDER	IC50 (µM)
Ac-ISRRLIDRTNANFLVWPPC [GP10]	2
Ac-ISRRLIDRTNANFLC (not fully specified; printed as Ac-25I-S-R-R-L-I-D-R-T-N-A-N-F-L38-C) [GP4]	2
